# assay procedure: self-splicing fitness, log relative to wild type (ln ratio); higher = more splicing; Tetrahymena group I intron in knt gene, E. coli kanamycin selection, DiMSum; sequences stand for … in CUCUCU…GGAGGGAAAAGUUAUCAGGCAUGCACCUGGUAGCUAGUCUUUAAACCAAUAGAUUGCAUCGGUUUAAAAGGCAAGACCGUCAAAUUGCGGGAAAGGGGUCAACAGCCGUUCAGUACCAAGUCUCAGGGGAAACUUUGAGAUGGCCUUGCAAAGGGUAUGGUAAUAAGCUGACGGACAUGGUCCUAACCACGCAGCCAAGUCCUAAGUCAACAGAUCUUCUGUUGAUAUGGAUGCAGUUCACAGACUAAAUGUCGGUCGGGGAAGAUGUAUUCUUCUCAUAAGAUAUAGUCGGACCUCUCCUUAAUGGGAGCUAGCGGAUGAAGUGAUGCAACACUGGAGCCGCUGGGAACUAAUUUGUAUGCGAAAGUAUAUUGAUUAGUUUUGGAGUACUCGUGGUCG;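 further: selection with 25 µg/mL kanamycin versus none on LB agar overnight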
# conditions used: 30 °C
metric name: self-splicing fitness (ln)
One number for each entry.

Consider the reported self-splicing fitness (ln) for these sequences:
sequence | recorded value
GAGUAGCAAUAUUACGAGAG | -3.63
AACUAGCAAUAUUACGAGUU | -3.44
GGAGAGCAAUAUUACGUCAU | -2.38
AGCGAGCAAUAUUACGAUAC | -3.47
UAUGAGCAAUAUUACGCAGA | -3.3
CCCCAGCAAUAUUACGGUAC | -3.84

From here, focus on the item given below.
Retrieve self-splicing fitness (ln) measured for "AACAAGCAAUAUUACGAAUC" and print it.
-3.22

----------
# assay procedure: self-splicing fitness, log relative to wild type (ln ratio); higher = more splicing; Tetrahymena group I intron in knt gene, E. coli kanamycin selection, DiMSum; sequences stand for … in CUCUCU…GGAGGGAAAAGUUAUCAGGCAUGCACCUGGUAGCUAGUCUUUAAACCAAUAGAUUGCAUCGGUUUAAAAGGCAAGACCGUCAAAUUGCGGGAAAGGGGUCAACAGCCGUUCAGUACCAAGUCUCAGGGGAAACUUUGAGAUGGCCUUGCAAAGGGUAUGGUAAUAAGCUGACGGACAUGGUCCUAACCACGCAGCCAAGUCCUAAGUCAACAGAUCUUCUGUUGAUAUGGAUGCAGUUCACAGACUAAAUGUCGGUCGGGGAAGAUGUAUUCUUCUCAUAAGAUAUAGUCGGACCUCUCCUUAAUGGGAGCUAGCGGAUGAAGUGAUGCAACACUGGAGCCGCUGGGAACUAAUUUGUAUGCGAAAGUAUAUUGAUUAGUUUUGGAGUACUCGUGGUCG
# conditions used: 30 °C
metric name: self-splicing fitness (ln)
Answers are plain numbers.

Examples from the recorded data:
sequence | self-splicing fitness (ln)
GCAAAGCAAUAUUACGCACA | -0.917
UAUUAGCAAUAUUACGGCAG | -0.281
GACGAGCAAUAUUACGAGAC | -3.99
CUAAAGCAAUAUUACGGACU | -3.93
UCCAAGCAAUAUUACGAUCA | -1.1
ACUAAGCAAUAUUACGCUUA | -2.54

Hi, could you look up self-splicing fitness (ln) for each item in my list?
1. GCAAAGCAAUAUUACGAUUG
2. GAAAAGCAAUAUUACGGAAG

1. -3.55
2. -3.88

Source of measurements: the supplement of paper PMC7877785
